Just for reference, patent US11504367B2 is where these values come from.

# targetSystem: recombinant full-length human hydroxyacid oxidase 1 (HAO1), the equivalents of hGOX (Homo sapiens (Human), UniProt Q9UJM8)
# Sequence (Q9UJM8 whole entry): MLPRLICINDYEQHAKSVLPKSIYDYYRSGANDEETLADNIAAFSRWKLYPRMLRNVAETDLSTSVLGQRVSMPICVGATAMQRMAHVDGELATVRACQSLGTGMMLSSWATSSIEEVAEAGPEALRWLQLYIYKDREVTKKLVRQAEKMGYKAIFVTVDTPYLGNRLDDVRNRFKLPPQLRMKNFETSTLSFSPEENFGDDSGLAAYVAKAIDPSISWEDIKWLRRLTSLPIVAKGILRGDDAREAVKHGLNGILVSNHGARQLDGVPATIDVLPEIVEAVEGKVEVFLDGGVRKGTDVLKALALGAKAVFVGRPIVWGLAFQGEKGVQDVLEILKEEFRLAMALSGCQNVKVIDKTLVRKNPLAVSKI
# testProtocol: In-vitro human glycolate oxidase (hGOX) assay (Amplex red fluorescence)
# measurementContext: 6 nM recombinant human GO, 85 μM glycolate, 10 min preincubation
Cut-off 4 nM on IC50: below means 1.0, at or above means 0.0.

Some entries whose results are on file:
CCOC(=O)c1c(Oc2ccc(C#CCC3CC3)cc2)n[nH]c1C 0.0
Cn1ncc2cc(C#Cc3ccc(Oc4[nH]nnc4C(=O)O)cc3)ccc21 1.0
CC#Cc1ccc(Oc2[nH]nnc2C(=O)O)cc1 0.0
CS(=O)(=O)c1ccc(Oc2[nH]nnc2C(=O)O)cc1C#Cc1ccccc1 0.0
O=C(O)c1nn[nH]c1Oc1cccc(C#Cc2ccc3[nH]ncc3c2)c1 1.0
O=C(O)c1nn[nH]c1Oc1ccc(C#Cc2cccc(F)c2)cc1 1.0
Cn1cc(C#Cc2cccc(Oc3[nH]nnc3C(=O)O)c2)ccc1=O 0.0
O=C(O)c1nn[nH]c1Oc1ccc(C#Cc2cn[nH]c2)cc1 0.0

Data request: Input O=C(O)c1nn[nH]c1Oc1cccc(C#Cc2ccccn2)c1 ; condition: IC50 strictly below 4 nM. Does it hold?
Data returned: 1.0

Data request: Input Cc1ccc(C#Cc2cccc(Oc3[nH]nnc3C(=O)O)c2)cn1 ; condition: IC50 strictly below 4 nM. Does it hold?
Data returned: 1.0

Data request: Input O=C(O)c1nn[nH]c1Oc1cccc(C#CCc2ccccc2)c1 ; condition: IC50 strictly below 4 nM. Does it hold?
Data returned: 0.0

* * *

# targetSystem: recombinant full-length human hydroxyacid oxidase 1 (HAO1), the equivalents of hGOX (Homo sapiens (Human), UniProt Q9UJM8)
# testProtocol: In-vitro human glycolate oxidase (hGOX) assay (Amplex red fluorescence)
# measurementContext: 6 nM recombinant human GO, 85 μM glycolate, 10 min preincubation
Listed here: items and their measured pIC50.
The scale used: pIC50 is minus the common logarithm of the concentration in molar units.

molecule	pIC50
CC(C)(O)C#Cc1ccc(Oc2[nH]nnc2C(=O)O)cc1 [Example 13]	6.36

Data request: For O=C(O)c1nn[nH]c1Oc1cccc(C#Cc2cccc3cn[nH]c23)c1 [Example 324] , what is its reported pIC50?
Data returned: 8.40

Data request: For O=C(O)c1nn[nH]c1Oc1ccc(C#Cc2ccc3cn[nH]c3c2)cc1 [Example 329] , what is its reported pIC50?
Data returned: 8.70

Data request: For O=C(O)c1nn[nH]c1Oc1cccc(C#Cc2ccc(F)cc2)c1 [Example 289] , what is its reported pIC50?
Data returned: 9.00

* * *

# targetSystem: recombinant full-length human hydroxyacid oxidase 1 (HAO1), the equivalents of hGOX (Homo sapiens (Human), UniProt Q9UJM8)
# testProtocol: In-vitro human glycolate oxidase (hGOX) assay (Amplex red fluorescence)
# measurementContext: 6 nM recombinant human GO, 85 μM glycolate, 10 min preincubation
Listed here: items and their measured IC50.

compound	IC50
COc1cccc(C#Cc2ccc(Oc3[nH]nnc3C(=O)O)cc2)c1 [Example 281]	3 nM

Data request: For CC(C)CC#Cc1cccc([S+]([O-])c2[nH]nnc2C(=O)O)c1 (centres unmarked) , what is its reported IC50?
Data returned: > 1000 nM

Data request: For O=C(O)c1nn[nH]c1Oc1cccc(C#CC2CCCC2)c1 , what is its reported IC50?
Data returned: 10 nM

Data request: For Cn1ncc2ccc(C#Cc3cccc(Oc4[nH]nnc4C(=O)O)c3)cc21 , what is its reported IC50?
Data returned: 2 nM

Data request: For O=C(O)c1nn[nH]c1Oc1ccc(C#CCc2ccc(F)cc2)cc1 , what is its reported IC50?
Data returned: 3 nM

* * *

# targetSystem: recombinant full-length human hydroxyacid oxidase 1 (HAO1), the equivalents of hGOX (Homo sapiens (Human), UniProt Q9UJM8)
# testProtocol: In-vitro human glycolate oxidase (hGOX) assay (Amplex red fluorescence)
# measurementContext: 6 nM recombinant human GO, 85 μM glycolate, 10 min preincubation
# Protocol: The in-vitro glycolate oxidase assay was performed using recombinant full-length human hydroxyacid oxidase 1 (HAO1), the equivalents of hGOX. […] Purified HAO1 was dissolved in assay buffer consisting of 10 mM NaCl, 110 mM KCl, 2 mM MgCl2, 50 mM HEPES (pH 7.4), and 0.01% Triton™ X-100. […] The fluorescence intensity signal was measured on a VariosKan LUX instrument using an excitation of 560 nm and an emission of 590 nm. The IC50 values were calculated using Graphpad Prism. […]
property: IC50 (nM)
Just the number in nM, nothing appended.

lineNotation	property	unitTag	measuredResult
CCC#Cc1cccc(Oc2[nH]nnc2C(=O)O)c1	IC50	nM	12
O=C(O)c1nn[nH]c1Oc1cccc(C#Cc2ncc[nH]2)c1	IC50	nM	7

Data request: For O=C(O)c1nn[nH]c1Oc1cccc(C#Cc2cccc(F)c2)c1 , what is its reported IC50?
Data returned: 2

Data request: For O=C(O)c1nn[nH]c1Oc1cccc(C#Cc2ccccc2)c1 , what is its reported IC50?
Data returned: 10

Data request: For O=C(O)c1nn[nH]c1Oc1cccc(C#CC2CCC(F)(F)CC2)c1 , what is its reported IC50?
Data returned: 21

Data request: For CS(=O)(=O)c1cccc(C#Cc2cc(F)cc(Oc3[nH]nnc3C(=O)O)c2)c1 , what is its reported IC50?
Data returned: 3

Data request: For O=C(O)c1nn[nH]c1Oc1cccc(C#Cc2ncccn2)c1 , what is its reported IC50?
Data returned: 6

* * *

Listed here: items and their measured IC50.
# targetSystem: recombinant full-length human hydroxyacid oxidase 1 (HAO1), the equivalents of hGOX (Homo sapiens (Human))
# testProtocol: In-vitro human glycolate oxidase (hGOX) assay (Amplex red fluorescence)
# measurementContext: 6 nM recombinant human GO, 85 μM glycolate, 10 min preincubation
Just the number in nM, nothing appended.

Some entries whose results are on file:
Cc1ccc(Oc2[nH]nnc2C(=O)O)cc1C#Cc1ccccc1 1
O=C(O)c1nn[nH]c1Oc1ccc(C#Cc2cnccn2)cc1 7
Cn1nccc1C#Cc1ccc(Oc2[nH]nnc2C(=O)O)cc1 5

Data request: For O=C(O)c1nn[nH]c1Sc1ccc(C#CCC2CC2)cc1 , what is its reported IC50?
Data returned: 6

Data request: For O=C(O)c1nn[nH]c1Oc1ccc(C#Cc2ccc3[nH]ncc3c2)cc1 , what is its reported IC50?
Data returned: 1

Data request: For CC(C)C#Cc1ccc(Oc2[nH]nnc2C(=O)O)cc1 , what is its reported IC50?
Data returned: 62

Data request: For O=C(O)c1nn[nH]c1Oc1ccc(C#CC2CCCCC2)cc1 , what is its reported IC50?
Data returned: 9

Data request: For O=C(O)c1nn[nH]c1Oc1ccc(C#Cc2cccnn2)cc1 , what is its reported IC50?
Data returned: 4

Data request: For O=C(O)c1nn[nH]c1Oc1ccc(C#Cc2ccc(Cl)cc2)cc1 , what is its reported IC50?
Data returned: 0.4

Data request: For O=C(O)c1nn[nH]c1Oc1cccc(C#Cc2cnccn2)c1 , what is its reported IC50?
Data returned: 4

Data request: For O=C(O)c1nn[nH]c1Oc1ccc(C#CCc2ccccc2)cc1 , what is its reported IC50?
Data returned: 5

* * *

# targetSystem: recombinant full-length human hydroxyacid oxidase 1 (HAO1), the equivalents of hGOX (Homo sapiens (Human), UniProt Q9UJM8)
# testProtocol: In-vitro human glycolate oxidase (hGOX) assay (Amplex red fluorescence)
# measurementContext: 6 nM recombinant human GO, 85 μM glycolate, 10 min preincubation
pIC50: −log10 of the molar value.
Label rule, in plain words: pIC50 of 8 and up is fulfilled, under 8 is not fulfilled.

compound	labelValue
CS(=O)(=O)c1cccc(C#Cc2ccc(Oc3[nH]nnc3C(=O)O)cc2F)c1 [Example 273]	fulfilled
Cn1ccnc1C#Cc1cccc(Oc2[nH]nnc2C(=O)O)c1 [Example 334]	fulfilled
O=C(O)c1nn[nH]c1Oc1cccc(C#CC2CCC2)c1 [Example 25]	not fulfilled
Cn1ncc2cccc(C#Cc3ccc(Oc4[nH]nnc4C(=O)O)cc3)c21 [Example 325]	fulfilled
CS(=O)(=O)c1ccc(C#Cc2ccc(Oc3[nH]nnc3C(=O)O)cc2F)cc1 [Example 272]	fulfilled
CCC#Cc1ccc(Oc2[nH]nnc2C(=O)O)cc1 [Example 303]	not fulfilled

Here's the next entry for you.
Data request: For this compound, is measured pIC50 8 or higher? CC(C)(C)C#Cc1cccc(Oc2[nH]nnc2C(=O)O)c1 [Example 17]
Data returned: not fulfilled

* * *

Listed here: items and their measured AUC Fold over Ex. 1.
# testProtocol: In-vivo pharmacokinetic evaluation (exposure, AUC fold-over Example 1)
# measurementContext: male CD-1 mice, 10 mg/kg oral gavage in 20% (2-Hydroxypropyl)-β-cyclodextrin, plasma at 0.5, 2 and 6 hours post-dose; AUC expressed as fold-over Example 1
Reply with just the number.

CC(C)(C)C#Cc1cccc(Oc2[nH]nnc2C(=O)O)c1 1.3

Data request: For CCC#Cc1cccc(Oc2[nH]nnc2C(=O)O)c1 , what is its reported AUC Fold over Ex. 1?
Data returned: 1.6

Data request: For O=C(O)c1nn[nH]c1Oc1cccc(C#CCC2CCCC2)c1 , what is its reported AUC Fold over Ex. 1?
Data returned: 1.9

Data request: For CCC#Cc1ccc(Oc2[nH]nnc2C(=O)O)cc1 , what is its reported AUC Fold over Ex. 1?
Data returned: 1.5

Data request: For CCCC#Cc1ccc(Oc2[nH]nnc2C(=O)O)cc1 , what is its reported AUC Fold over Ex. 1?
Data returned: 0.9

Data request: For O=C(O)c1nn[nH]c1Oc1cccc(C#CC2CC2)c1 , what is its reported AUC Fold over Ex. 1?
Data returned: 2.5

Data request: For O=C(O)c1nn[nH]c1Oc1cccc(C#CCC2CCCCC2)c1 , what is its reported AUC Fold over Ex. 1?
Data returned: 0.7

Data request: For Cc1ccc(C#Cc2cccc(Oc3[nH]nnc3C(=O)O)c2)cn1 , what is its reported AUC Fold over Ex. 1?
Data returned: 0.2

Data request: For O=C(O)c1nn[nH]c1Oc1cccc(C#CCc2ccc(F)cc2)c1 , what is its reported AUC Fold over Ex. 1?
Data returned: 2.4

Data request: For O=C(O)c1nn[nH]c1Oc1cccc(C#Cc2nccs2)c1 , what is its reported AUC Fold over Ex. 1?
Data returned: 0.4
